Origin of values: BindingDB's records for doi:10.1016/j.bmcl.2009.01.089

- Target: Gag-Pol polyprotein [1148-1435] (Human immunodeficiency virus 1)
- Construct: 1148-1435
- Assay Procedure: HIV Integrase Strand Transfer Scintillation Proximity Assay (SPA)
- Particulars: pH 7.2; 37 °C
Measurement Name: IC50 (nM)

• Cc1ccc(S(=O)(=O)Nc2nc(-c3nnc(Cc4ccc(F)cc4)o3)c(O)c3ncccc23)cc1 = 42

----------
- Target: Gag-Pol polyprotein [1148-1435] (Human immunodeficiency virus 1)
- Construct: 1148-1435
- Assay Procedure: HIV Integrase Strand Transfer Scintillation Proximity Assay (SPA)
Measurement Name: IC50 (nM)

• NC(=O)c1nc(-c2nnc(Cc3ccc(F)cc3)o2)c(O)c2ncccc12 = 100
